assay system: human liver microsomal G-6-Pase (Homo sapiens)
Sequence (P35575 whole entry): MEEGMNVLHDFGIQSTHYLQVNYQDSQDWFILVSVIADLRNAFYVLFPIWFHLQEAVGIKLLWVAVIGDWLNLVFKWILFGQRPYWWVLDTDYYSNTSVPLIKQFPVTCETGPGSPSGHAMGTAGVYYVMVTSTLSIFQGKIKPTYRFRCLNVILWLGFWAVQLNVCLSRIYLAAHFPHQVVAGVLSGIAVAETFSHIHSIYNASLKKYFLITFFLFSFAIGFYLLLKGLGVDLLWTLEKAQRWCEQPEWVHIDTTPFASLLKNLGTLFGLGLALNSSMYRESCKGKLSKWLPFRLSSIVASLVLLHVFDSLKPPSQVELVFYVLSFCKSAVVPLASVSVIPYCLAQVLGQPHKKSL
experimental endpoint: pKi
Lab note: report pKi as minus log10 of the concentration in molar units, number only.

Name the value of pKi reported for [O]=[V]([OH])([OH])[OH] [Vanadate] when tested on human liver microsomal G-6-Pase (Homo sapiens). 2.79

----------
assay system: mouse liver microsomal G-6-Pase (Mus musculus)
Construct: hepatic G-6-Pase activities of microsomes isolated from adult mouse liver
Sequence (P35576 1-357): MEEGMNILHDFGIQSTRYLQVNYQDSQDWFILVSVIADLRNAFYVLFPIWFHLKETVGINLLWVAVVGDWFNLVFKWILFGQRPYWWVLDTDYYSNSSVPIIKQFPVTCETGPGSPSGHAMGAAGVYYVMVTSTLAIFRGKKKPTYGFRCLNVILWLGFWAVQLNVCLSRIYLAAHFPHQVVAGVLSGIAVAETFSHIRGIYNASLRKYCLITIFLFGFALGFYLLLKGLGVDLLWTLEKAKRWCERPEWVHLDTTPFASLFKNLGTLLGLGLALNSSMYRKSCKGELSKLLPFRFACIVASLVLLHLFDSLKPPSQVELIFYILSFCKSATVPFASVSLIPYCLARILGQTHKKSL
protocol notes: Phosphohydrolase assay, adult mouse liver microsomes
experimental parameters: competitive inhibitor of glucose-6-P phosphohydrolysis, read-out: Vanadate, Ki
experimental endpoint: Ki (µM)
Enter your answer as a number in µM; do not include the unit.

Given the compound [O]=[V]([OH])([OH])[OH] [Vanadate] , write its reported Ki. 330

----------
assay system: human G-6-Pase (Homo sapiens, UniProt P35575, A192T)
Sequence (P35575 whole entry A192T): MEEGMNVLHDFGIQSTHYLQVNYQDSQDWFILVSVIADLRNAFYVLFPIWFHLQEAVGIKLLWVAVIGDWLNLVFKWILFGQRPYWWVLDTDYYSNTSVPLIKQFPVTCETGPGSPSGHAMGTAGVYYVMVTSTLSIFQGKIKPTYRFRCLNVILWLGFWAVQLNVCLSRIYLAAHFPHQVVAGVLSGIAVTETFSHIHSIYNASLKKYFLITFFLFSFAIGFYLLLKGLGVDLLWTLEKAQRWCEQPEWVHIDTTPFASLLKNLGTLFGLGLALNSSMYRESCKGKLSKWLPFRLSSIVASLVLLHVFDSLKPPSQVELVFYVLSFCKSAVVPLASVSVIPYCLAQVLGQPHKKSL
experimental parameters: read-out: Vanadate K1; phG-6-Pase-1-transfected COS-1 microsomes
experimental endpoint: Ki

Given the molecule [O]=[V]([OH])([OH])[OH] [Vanadate] , write its reported Ki. 1.68 mM

Hey, just so you know, these numbers are from patent US5460942A.
